# ASSAY_SUMMARY: Selectivity index, ratio of CC50 for human HepG2 cells to IC50 for chloroquine, pyrimethamine and proguanil-resistant Plasmodium falciparum W2
# Assay type: functional
The threshold is 10. Values of Ratio CC50/IC50 beneath it are tagged True; values meeting or exceeding it are tagged False.

Worked examples, 8 molecules total:
{"columns": ["COMPOUND_SMILES", "CLASS_ASSIGNMENT"],
 "data": [
  ["C[C@H]1c2cccc(O)c2C(=O)C2=C(O)[C@]3(O)C(=O)C(C(N)=O)=C(O)[C@@H](N(C)C)[C@@H]3[C@@H](O)[C@@H]21.O", "True"],
  ["Fc1ccccc1Oc1nc(C(Cl)(Cl)Cl)nc2ccccc12", "True"],
  ["Cc1nc(Oc2ccc(Cl)cc2)c2ccccc2n1", "True"],
  ["FC(F)(F)c1cccc(Oc2nc(C(Cl)(Cl)Cl)nc3ccccc23)c1", "False"],
  ["Fc1ccc(Oc2nc(C(Cl)(Cl)Cl)nc3ccccc23)cc1", "False"],
  ["ClC(Cl)(Cl)c1nc(Oc2ccccc2)c2ccccc2n1", "False"],
  ["Cc1cccc(Oc2nc(C(Cl)(Cl)Cl)nc3ccccc23)c1", "True"],
  ["Clc1cccc(Oc2nc(C(Cl)(Cl)Cl)nc3ccccc23)c1", "False"]
]}

Turning now to a further record.
Problem: Is 10 strictly greater than the molecule's reported Ratio CC50/IC50? molecule: FC(F)(F)c1nc(Oc2ccc(Cl)cc2)c2ccccc2n1
Solution: True

meta.source: ChEMBL document CHEMBL1821638
